Attribution: PubChem BioAssay (NCI)

system: SN12C renal; test: NCI tumour cell line growth inhibition, 48 h; in the data active = GI50 below about 0.43 µM; inactive = the rest
Mark one answer only. Choices: T for active, F for inactive

O=c1c2ccccc2c(Br)c(Br)c2ccccc12
F
CC(C)[C@H]1CC[C@H]2[C@@H](CC[C@H]3[C@](C)(CN)CCC[C@]23C)C1
F
O=c1ccc(N=Nc2ccc([N+](=O)[O-])cc2)ccc1O
F
O=c1c2c3c(sc2n2c(-c4cc(-c5ccccc5)no4)nnc2n1Cc1ccccc1)CCCC3
F
CC(C)Nc1ccc(Nc2ccccc2)cc1
F

What did the test return for COc1ccc2c(c1)=C(C=C1C=CN(O)C=C1)C(=O)N=2 ?
F

For COc1cc2c3c(n(CCCN(CCN)CCCn4c5c(c6cc(OC)c(OC)cc6c4=O)C(=O)c4cc6c(cc4-5)OCO6)c(=O)c2cc1OC)-c1cc2c(cc1C3=O)OCO2 then?
T

For CC[O-].CC[O-].O=C([CH-]C(=O)c1cccnc1)c1ccccc1.O=C([CH-]C(=O)c1cccnc1)c1ccccc1.[Ti+4] then?
F

For CC(=O)CCc1ccc(OC2OC(COC(=O)c3cc(O)c(O)c(O)c3)C(O)C(O)C2OC(=O)/C=C/c2ccccc2)cc1 (centres undefined) then?
F

* * *

tested on: HCC-2998 colon; assay: NCI tumour cell line growth inhibition, 48 h; in the data active = GI50 below about 0.43 µM; inactive = the rest
Mark one answer only. Choices: active, inactive

Cn1cc(C2=C(c3cn(CCO)c4ccccc34)C(=O)NC2=O)c2ccccc21
inactive
O=C1C2C(C(=O)[N]1[Hg][c]1cccs1)C1(Cl)C(Cl)=C(Cl)C2(Cl)C1(Cl)Cl (configuration not stated)
inactive
CN(Cc1ccc(Cl)cc1)c1ccc(CO)c(Cl)c1
inactive

What did the test return for O=c1ccc(N=Nc2ccc([N+](=O)[O-])cc2)ccc1O ?
inactive

For N#C/C(=N\Nc1ccc(Cl)cc1)C(=O)Nc1cc(-c2ccccc2)nn1-c1ccccc1 then?
inactive

For Cn1cc(C2=C(c3cccc(N)c3)C(=O)NC2=O)c2ccccc21 then?
inactive

For COc1ccc(C2CC(c3cccc(Nc4ccncc4)c3)=NN2c2ccc(Cl)cc2)cc1 (configuration not stated) then?
inactive

For O=c1c2c3c(sc2n2c(-c4cc(-c5ccccc5)no4)nnc2n1Cc1ccccc1)CCCC3 then?
inactive

* * *

tested on: MOLT-4 leukemia; assay: NCI tumour cell line growth inhibition, 48 h
Measured TGI, listed per entry for reference.

Worked examples, 5 compounds total:
C=C1[C@H](OC(=O)C(C)C)[C@]23CC4(O)[C@@H]5[C@@]6(C)CCC[C@]57C([C@@H]2C[C@@]1(O)[C@H](O)[C@@H]73)N4C6
> 100 µM
O=C(N/N=C(/COc1ccc(Cl)cc1)N=Cc1cccnc1)c1ccncc1
> 100 µM
CC(C)(O)C#Cc1ccc(/C=C/C(=O)c2ccccc2)s1
43.6 µM
c1ccc2c(c1)sc1c3cnccc3ccc21
> 100 µM
CCOC(=O)c1c(-c2ccccc2)oc(-c2ccccc2)c1C(=O)OCC
> 100 µM

Field: TGI (MOLT-4 leukemia). Entry: CC(=O)N1CN2C(=O)CCC2c2ccccc21 (configuration not stated)
> 100 µM

For Clc1cc2c(cc1Cl)Oc1cc(Cl)c(Cl)cc1O2 then?
> 0.625 µM

For O=c1c2c3c(sc2n2c(-c4cc(-c5ccccc5)no4)nnc2n1Cc1ccccc1)CCCC3 then?
32.7 µM

For Cc1cccc2cc3c(ccc4ccccc43)c[n+]12 then?
> 100 µM

For OC1(c2ccc(Cl)cc2)c2c(ccc3c2OCO3)C2=NCCN21 (configuration not stated) then?
> 100 µM

For COc1cc2c(cc1O)-c1c(cnn1-c1ccc([N+](=O)[O-])cc1)CCC2 then?
6.2 µM

For COc1cc2c(c(O)c1OC)C(O)C1CCC(=O)N1C2c1cccc2ccccc12 (configuration not stated) then?
> 100 µM

For CC1(C)C2CCC(CN)(C2)C1O (configuration not stated) then?
> 100 µM
